The reported numbers originate from ChEMBL document CHEMBL2163215.

Entries and their measured CC50 follow.
# protocol: Cytotoxicity against human PBMC
readoutType: CC50

CONC(=O)N(Cc1ccsc1)C1CCN([C@H](C)CCNC(=O)c2c(C)cc(Cl)[n+]([O-])c2Cl)CC1 :: > 38.5 µM
Cc1cc(Cl)nc(C)c1C(=O)NCC[C@@H](C)N1CCC(N(Cc2ccsc2)C(=O)NO)CC1 :: > 38.5 µM
COc1ccc(N(Cc2ccsc2)C2CCN([C@H](C)CCNC(=O)c3c(C)ncnc3C)CC2)cc1 :: > 38.7 µM
CONC(=O)N(Cc1ccsc1)C1CCN([C@H](C)CCNC(=O)c2c(C)cc(C#N)nc2Cl)CC1 :: > 38.5 µM
CNC(=O)N(Cc1ccsc1)C1CCN([C@H](C)CCNC(=O)c2c(C)cc(Cl)nc2C)CC1 :: > 40.6 µM
Cc1cc(Cl)nc(C)c1C(=O)NCC[C@@H](C)N1CCC(N(Cc2ccsc2)C(=O)Nc2cccnc2)CC1 :: > 32.4 µM
COCCONC(=O)N(Cc1ccsc1)C1CCN([C@H](C)CCNC(=O)c2c(C)cc(Cl)nc2C)CC1 :: > 34.4 µM
Cc1cc(C#N)nc(C)c1C(=O)NCC[C@@H](C)N1CCC(N(Cc2ccsc2)C(=O)CC2CCOCC2)CC1 :: > 36.2 µM
COc1ccc(N(Cc2cnccc2C)C2CCN([C@H](C)CCNC(=O)c3c(C)ncnc3C)CC2)cc1 :: > 38.3 µM
Cc1cc(Cl)nc(C)c1C(=O)NCC[C@@H](C)N1CCC(N(Cc2ccsc2)C(=O)CC2CCOCC2)CC1 :: > 35.6 µM

###

# protocol: Fraction unbound in human plasma after 5 hrs
Entries and their measured fraction unbound at 5 h follow.
readoutType: fraction unbound at 5 h

Cc1cc(Cl)nc(C)c1C(=O)NCC[C@@H](C)N1CCC(N(Cc2ccsc2)C(=O)Nc2cccnc2)CC1 :: 0.46
CNC(=O)N(Cc1ccsc1)C1CCN([C@H](C)CCNC(=O)c2c(C)cc(Cl)nc2C)CC1 :: 0.46
Cc1cc(Cl)nc(C)c1C(=O)NCC[C@@H](C)N1CCC(N(Cc2ccsc2)C(=O)CC2CCOCC2)CC1 :: 0.8
COc1ccc(N(Cc2ccsc2)C2CCN([C@H](C)CCNC(=O)c3c(C)ncnc3C)CC2)cc1 :: 0.91
COCCONC(=O)N(Cc1ccsc1)C1CCN([C@H](C)CCNC(=O)c2c(C)cc(Cl)nc2C)CC1 :: 0.43
CONC(=O)N(Cc1ccsc1)C1CCN([C@H](C)CCNC(=O)c2c(C)cc(C#N)nc2Cl)CC1 :: 0.75
Cc1cc(C#N)nc(C)c1C(=O)NCC[C@@H](C)N1CCC(N(Cc2ccsc2)C(=O)CC2CCOCC2)CC1 :: 0.85
CONC(=O)N(Cc1ccsc1)C1CCN([C@H](C)CCNC(=O)c2c(C)cc(Cl)[n+]([O-])c2Cl)CC1 :: 0.31
Cc1cc(Cl)nc(C)c1C(=O)NCC[C@@H](C)N1CCC(N(Cc2ccsc2)C(=O)NO)CC1 :: 0.4

###

# protocol: Toxicity in rat administered for 7 days
# testSettings: in vivo
readoutType: NOAEL at 168 h

COCCONC(=O)N(Cc1ccsc1)C1CCN([C@H](C)CCNC(=O)c2c(C)cc(Cl)nc2C)CC1 :: ≥ 400 mg/kg

###

# tgt: hERG (KCNH2) (Homo sapiens, UniProt Q12809)
# Sequence (Q12809 whole entry): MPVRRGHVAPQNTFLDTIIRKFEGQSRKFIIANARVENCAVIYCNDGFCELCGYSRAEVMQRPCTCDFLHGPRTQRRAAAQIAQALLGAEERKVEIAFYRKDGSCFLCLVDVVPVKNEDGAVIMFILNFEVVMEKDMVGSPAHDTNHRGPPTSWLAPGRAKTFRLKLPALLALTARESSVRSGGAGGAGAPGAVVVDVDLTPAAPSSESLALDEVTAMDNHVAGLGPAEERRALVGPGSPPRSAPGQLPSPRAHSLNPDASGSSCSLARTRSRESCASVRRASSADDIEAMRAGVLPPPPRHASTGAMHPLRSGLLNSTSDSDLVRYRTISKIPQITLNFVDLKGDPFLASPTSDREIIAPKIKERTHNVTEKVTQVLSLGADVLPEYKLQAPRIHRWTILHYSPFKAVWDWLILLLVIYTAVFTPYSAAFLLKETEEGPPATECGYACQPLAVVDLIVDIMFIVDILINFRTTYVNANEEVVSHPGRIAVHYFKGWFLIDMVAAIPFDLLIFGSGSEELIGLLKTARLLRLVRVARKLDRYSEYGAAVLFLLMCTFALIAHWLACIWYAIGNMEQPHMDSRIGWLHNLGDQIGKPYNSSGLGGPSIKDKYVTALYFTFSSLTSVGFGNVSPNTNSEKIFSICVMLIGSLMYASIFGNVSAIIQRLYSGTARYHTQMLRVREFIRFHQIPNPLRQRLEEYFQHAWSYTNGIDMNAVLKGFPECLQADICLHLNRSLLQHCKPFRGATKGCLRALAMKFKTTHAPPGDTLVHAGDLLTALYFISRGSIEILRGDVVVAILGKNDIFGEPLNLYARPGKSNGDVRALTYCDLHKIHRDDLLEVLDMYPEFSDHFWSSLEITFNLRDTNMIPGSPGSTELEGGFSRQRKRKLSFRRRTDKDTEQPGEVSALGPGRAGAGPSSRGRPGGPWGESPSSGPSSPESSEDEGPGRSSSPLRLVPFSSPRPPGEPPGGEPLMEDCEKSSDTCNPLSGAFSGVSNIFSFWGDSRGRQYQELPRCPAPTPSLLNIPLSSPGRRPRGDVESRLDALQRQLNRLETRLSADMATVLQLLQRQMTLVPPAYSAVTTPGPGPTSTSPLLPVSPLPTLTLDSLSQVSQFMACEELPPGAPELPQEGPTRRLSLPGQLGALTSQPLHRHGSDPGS
# protocol: Inhibition of human recombinant hERG expressed in CHO cells at 10 uM by automated patch clamp assay
# testSettings: CHO cells expressing human recombinant hERG
Tick MET if inhibition at 10 µM is 40% or greater. Tick NOT MET if inhibition at 10 µM is less than 40%.

Cc1cc(C#N)nc(C)c1C(=O)NCC[C@@H](C)N1CCC(N(Cc2ccsc2)C(=O)CC2CCOCC2)CC1 :: MET
Cc1cc(Cl)nc(C)c1C(=O)NCC[C@@H](C)N1CCC(N(Cc2ccsc2)C(=O)NO)CC1 :: MET
COc1ccc(N(Cc2ccsc2)C2CCN([C@H](C)CCNC(=O)c3c(C)ncnc3C)CC2)cc1 :: MET
CONC(=O)N(Cc1ccsc1)C1CCN([C@H](C)CCNC(=O)c2c(C)cc(Cl)[n+]([O-])c2Cl)CC1 :: NOT MET
Cc1cc(Cl)nc(C)c1C(=O)NCC[C@@H](C)N1CCC(N(Cc2ccsc2)C(=O)CC2CCOCC2)CC1 :: MET
COc1ccc(N(Cc2cnccc2C)C2CCN([C@H](C)CCNC(=O)c3c(C)ncnc3C)CC2)cc1 :: MET
CNC(=O)N(Cc1ccsc1)C1CCN([C@H](C)CCNC(=O)c2c(C)cc(Cl)nc2C)CC1 :: MET
Cc1cc(Cl)nc(C)c1C(=O)NCC[C@@H](C)N1CCC(N(Cc2ccsc2)C(=O)Nc2cccnc2)CC1 :: NOT MET
